Recorded values, source patent US20220315567A1.

Biological target: human OPRM1 (μ, MOR) (Homo sapiens, UniProt P35372)
Construct: host or cells: CHO-K1
Sequence (P35372 whole entry): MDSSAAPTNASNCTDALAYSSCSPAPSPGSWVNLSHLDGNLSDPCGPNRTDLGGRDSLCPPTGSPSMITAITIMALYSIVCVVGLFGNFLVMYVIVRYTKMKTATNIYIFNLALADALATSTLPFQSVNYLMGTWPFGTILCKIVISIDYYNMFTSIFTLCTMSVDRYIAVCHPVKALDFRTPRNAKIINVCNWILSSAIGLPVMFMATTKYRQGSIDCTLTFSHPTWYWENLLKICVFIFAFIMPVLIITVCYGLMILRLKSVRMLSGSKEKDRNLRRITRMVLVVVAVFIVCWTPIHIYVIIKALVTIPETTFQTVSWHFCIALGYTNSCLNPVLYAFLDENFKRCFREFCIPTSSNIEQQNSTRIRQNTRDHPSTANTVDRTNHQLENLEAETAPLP
Test: cell-based
Settings: OPRM1, read-out: cAMP Emax
Counter-ions that a name gives are not always drawn.
metric: Emax (%)
Supply the numeric figure in %, leaving out any unit text.

Examples from the recorded data:
{"molecule": "COc1ccc(C(CNC(=O)N2Cc3ccccc3C2)N(C)C)cc1 (centres unmarked) [Compound 15a, hydrochloride]", "tested-target": "human OPRM1 (μ, MOR) (Homo sapiens, UniProt P35372)", "Emax, %": 108}
{"molecule": "CN(C)[C@@H](CCNC(=O)N[C@@H]1CCc2ccccc2C1)c1ccsc1", "tested-target": "human OPRM1 (μ, MOR) (Homo sapiens, UniProt P35372)", "Emax, %": 13.6}
{"molecule": "CN(C)[C@H](CCNC(=O)N1Cc2ccc(F)cc2C1)c1ccsc1", "tested-target": "human OPRM1 (μ, MOR) (Homo sapiens, UniProt P35372)", "Emax, %": 109}

Proceeding to the next molecule to report its Emax.
Please give measured Emax of the following entry: CN(C(=O)OC(C)(C)C)C(CNC(=O)N1Cc2ccc(F)cc2C1)c1ccsc1 (centres unmarked)
2.6
